experimental target: Toll-like receptor 2 (Mus musculus) (UniProt Q9QUN7)
Sequence (Q9QUN7 whole entry): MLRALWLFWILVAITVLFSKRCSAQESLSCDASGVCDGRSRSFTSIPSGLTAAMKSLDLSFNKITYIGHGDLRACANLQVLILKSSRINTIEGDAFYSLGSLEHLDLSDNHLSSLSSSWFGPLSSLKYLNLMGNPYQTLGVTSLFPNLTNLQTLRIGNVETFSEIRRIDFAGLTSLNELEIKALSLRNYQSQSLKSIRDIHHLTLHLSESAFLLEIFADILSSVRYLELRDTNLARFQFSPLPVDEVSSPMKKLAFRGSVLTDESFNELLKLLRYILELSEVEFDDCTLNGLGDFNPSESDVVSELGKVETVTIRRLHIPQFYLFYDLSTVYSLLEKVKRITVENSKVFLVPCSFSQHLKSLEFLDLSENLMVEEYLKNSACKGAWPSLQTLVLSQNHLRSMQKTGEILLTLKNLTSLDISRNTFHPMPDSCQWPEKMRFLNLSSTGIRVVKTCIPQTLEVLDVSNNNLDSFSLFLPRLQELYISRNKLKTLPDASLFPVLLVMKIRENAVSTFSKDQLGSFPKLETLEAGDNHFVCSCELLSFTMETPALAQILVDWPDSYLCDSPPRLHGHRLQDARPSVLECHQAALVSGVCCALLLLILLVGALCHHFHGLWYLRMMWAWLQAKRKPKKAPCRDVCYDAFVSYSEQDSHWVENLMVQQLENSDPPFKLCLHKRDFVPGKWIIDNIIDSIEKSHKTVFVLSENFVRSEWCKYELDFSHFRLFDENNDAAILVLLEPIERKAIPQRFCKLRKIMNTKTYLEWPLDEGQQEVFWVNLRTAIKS
assay overview: Agonist activity at mouse TLR2 transfected in HEK293 cells relative to control
Format: cell-based
Set-up: concentration or dose not given beside the values
study conditions: filed as agonist
assay readout: Activity

Worked examples follow.
- compound: "CCCCCCCCCCCCCCCC(=O)OCC(CSC[C@@H](NC(=O)CCCCCCCCC)C(=O)N[C@@H](CO)C(=O)N[C@@H](CCCCN)C(=O)N[C@@H](CCCCN)C(=O)N[C@@H](CCCCN)C(=O)N[C@@H](CCCCN)C(=O)O)OC(=O)CCCCCCCCCCCCCCC (stereo not given in full)"
  assay readout: "Activity"
  result: "> 100%"
- compound: "CCCCCCCCCCCCCCCC(=O)OCC(CSC[C@@H](NC(=O)CCCCC)C(=O)N[C@@H](CO)C(=O)N[C@@H](CCCCN)C(=O)N[C@@H](CCCCN)C(=O)N[C@@H](CCCCN)C(=O)N[C@@H](CCCCN)C(=O)O)OC(=O)CCCCCCCCCCCCCCC (stereo not given in full)"
  assay readout: "Activity"
  result: "> 100%"
- compound: "CCCCCCCCCCCCCCCC(=O)N[C@H](CSCC(COC(=O)CCCCCCCCCCCCCCC)OC(=O)CCCCCCCCCCCCCCC)C(=O)N[C@@H](CO)C(=O)N[C@@H](CCCCN)C(=O)N[C@@H](CCCCN)C(=O)N[C@@H](CCCCN)C(=O)N[C@@H](CCCCN)C(=O)O (stereo not given in full)"
  assay readout: "Activity"
  result: "51%"

Record summary for CCCCCCCCCCCCCCCC(=O)OCC(CSC[C@@H](NC(=O)CCCCCCCCCCCCC)C(=O)N[C@@H](CO)C(=O)N[C@@H](CCCCN)C(=O)N[C@@H](CCCCN)C(=O)N[C@@H](CCCCN)C(=O)N[C@@H](CCCCN)C(=O)O)OC(=O)CCCCCCCCCCCCCCC (stereo not given in full) : reported Activity = > 100%

Record summary for CCCCCCCCCCCCCCCC(=O)OCC(CSC[C@@H](NC(=O)Cc1ccccc1)C(=O)N[C@@H](CO)C(=O)N[C@@H](CCCCN)C(=O)N[C@@H](CCCCN)C(=O)N[C@@H](CCCCN)C(=O)N[C@@H](CCCCN)C(=O)O)OC(=O)CCCCCCCCCCCCCCC (stereo not given in full) : reported Activity = > 100%

---

experimental target: Toll-like receptor 2 (Homo sapiens, UniProt O60603)
Sequence (O60603 whole entry): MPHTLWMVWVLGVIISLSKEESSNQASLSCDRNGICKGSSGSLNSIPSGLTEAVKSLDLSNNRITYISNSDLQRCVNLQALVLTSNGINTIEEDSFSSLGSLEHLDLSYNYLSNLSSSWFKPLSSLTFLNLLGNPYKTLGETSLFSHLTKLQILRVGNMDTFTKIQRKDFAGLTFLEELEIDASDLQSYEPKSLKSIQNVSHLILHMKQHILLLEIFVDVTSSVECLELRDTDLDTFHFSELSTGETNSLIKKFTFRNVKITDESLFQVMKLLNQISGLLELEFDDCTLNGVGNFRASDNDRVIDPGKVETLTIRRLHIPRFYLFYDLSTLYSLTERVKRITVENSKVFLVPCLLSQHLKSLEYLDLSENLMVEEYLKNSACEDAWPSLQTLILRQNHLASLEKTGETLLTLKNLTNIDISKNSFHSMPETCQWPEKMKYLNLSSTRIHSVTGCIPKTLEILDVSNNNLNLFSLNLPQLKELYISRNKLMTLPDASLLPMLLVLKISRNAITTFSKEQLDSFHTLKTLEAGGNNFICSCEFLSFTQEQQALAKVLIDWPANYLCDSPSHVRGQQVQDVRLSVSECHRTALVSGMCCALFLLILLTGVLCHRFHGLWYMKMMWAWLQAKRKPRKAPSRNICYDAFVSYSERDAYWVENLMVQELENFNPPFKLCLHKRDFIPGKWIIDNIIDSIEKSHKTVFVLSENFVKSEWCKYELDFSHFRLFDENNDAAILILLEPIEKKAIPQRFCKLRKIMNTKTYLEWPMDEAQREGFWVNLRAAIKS
assay overview: Agonist activity at human TLR2 transfected in HEK293 cells
Type: cell-based
pEC50: −log10 of the molar value.
Use 6 as the dividing line for pEC50, with the line itself on the Satisfied side and lower values as Not satisfied.

- compound: "CCCCCCCCCCCC(=O)OC[C@H](CSC[C@@H](N)C(=O)NCCOCCP(=O)(O)O)OC(=O)CCCCCCCCCCC"
  label: "Satisfied"
- compound: "CCCCCCCCCCCC(=O)OC[C@H](CSC[C@@H](N)C(=O)NCCCn1ccnc1)OC(=O)CCCCCCCCCCC"
  label: "Satisfied"
- compound: "CCCCCCCCCCCCOC[C@H](CSC[C@@H](N)C(=O)NCCOCCOCCOCCP(=O)(O)O)OCCCCCCCCCCCC"
  label: "Satisfied"
- compound: "CCCCCCCCCCCCCCCC(=O)N[C@H](CSC[C@@H](COC(=O)CCCCCCCCCCC)OC(=O)CCCCCCCCCCC)C(=O)NCCOCCOCCOCCP(=O)(O)O"
  label: "Not satisfied"
- compound: "CCCCCCCCCCCC(=O)OC[C@H](CSC[C@@H](N)C(=O)N[C@@H](CO)C(=O)NCCOCCOCCOCCC(=O)O)OC(=O)CCCCCCCCCCC"
  label: "Not satisfied"

Is the recorded value of pEC50 equal to or greater than 6 for this compound? "CCCCCCCCCCCC(=O)OC[C@H](CSC[C@@H](N)C(=O)NCCOCCOCCOCCP(=O)(O)O)OC(=O)CCCCCCCCCCC"
Satisfied

Is the recorded value of pEC50 equal to or greater than 6 for this compound? CCCCCCCCCCCC(=O)OC[C@H](CSC[C@@H](N)C(=O)NC(CC)COC)OC(=O)CCCCCCCCCCC (stereo not given in full)
Satisfied

Is the recorded value of pEC50 equal to or greater than 6 for this compound? "CCCCCCCCCCCC(=O)OC[C@H](CSC[C@@H](N)C(=O)NCCOCCOS(=O)(=O)O)OC(=O)CCCCCCCCCCC"
Satisfied

Is the recorded value of pEC50 equal to or greater than 6 for this compound? CCCCCCCCCCCC(=O)OC[C@H](CSC[C@@H](N)C(=O)NC(Cc1ccccc1)c1ccccc1)OC(=O)CCCCCCCCCCC (stereo not given in full)
Satisfied

Is the recorded value of pEC50 equal to or greater than 6 for this compound? "CCCCCCCCCCCC(=O)OC[C@H](CSC[C@@H](N)C(=O)NCCc1cccc(O)c1)OC(=O)CCCCCCCCCCC"
Not satisfied

Is the recorded value of pEC50 equal to or greater than 6 for this compound? "CCCCCCCC(=O)OC[C@H](CSC[C@@H](N)C(=O)NCCOCCOCCOCCP(=O)(O)O)OC(=O)CCCCCCC"
Not satisfied

Is the recorded value of pEC50 equal to or greater than 6 for this compound? "CCCCCCCCCCCC(=O)OC[C@H](CSC[C@@H](N)C(=O)NCCOCCOCCC(F)(F)P(=O)(O)O)OC(=O)CCCCCCCCCCC"
Satisfied

Is the recorded value of pEC50 equal to or greater than 6 for this compound? "CCCCCCCCCCCC[C@H](CSC[C@@H](N)C(=O)NCCOCCOCCOCCP(=O)(O)O)OC(=O)NCCCCCCCCCCC"
Not satisfied

Is the recorded value of pEC50 equal to or greater than 6 for this compound? "CCCCCCCCCCCCCCCC(=O)N[C@H](CSC[C@@H](COC(=O)NCCCCCCCCCC)OC(=O)NCCCCCCCCCC)C(=O)NCCOCCOCCOCCP(=O)(O)O"
Not satisfied

Is the recorded value of pEC50 equal to or greater than 6 for this compound? "CCCCCCCCCCCC(=O)OC[C@H](CSC[C@@H](N)C(=O)NCCc1ccc(OCCOCCO)cc1)OC(=O)CCCCCCCCCCC"
Not satisfied

---

Each entry below lists one item and its recorded EC50 value.
experimental target: Toll-like receptor 2 (Homo sapiens, UniProt O60603)
assay overview: Agonist activity at TLR2 (unknown origin)
# number only, unit nM dropped from output

- smiles input: "CCCCCCCCCCCCCCCC(=O)OCC[C@H](CS[C@H](NC(C)=O)C(=O)N[C@@H](CO)C(=O)N[C@@H](CCCCN)C(=O)N[C@@H](CCCCN)C(=O)N[C@@H](CCCCN)C(=O)N[C@@H](CCCCN)C(=O)N[C@@H](CO)C(=O)N[C@@H](CC(C)C)C(=O)N[C@@H](CC(C)C)C(=O)N[C@@H](CCSC)C(=O)N[C@@H](Cc1c[nH]c2ccccc12)C(=O)N[C@H](C(=O)N[C@H](C(=O)N[C@@H](CCC(N)=O)C(=O)N[C@H](C(=O)O)C(C)C)[C@@H](C)O)[C@@H](C)CC)OC(=O)CCCCCCCCCCCCCCC"
  units label: "nM"
  EC50: 1160
- smiles input: "CCCCCCCCCCCCCCCC(=O)OCCSC[C@H](NC(=O)COCC(=O)NCCCOCCOCCOCCCNC)C(=O)NCC(=O)N[C@H](CO)C(=O)COCC(=O)NCCCOCCOCCOCCCN"
  units label: "nM"
  EC50: 674

Record summary for "CCCCCCCCCCCCCCCC(=O)OC[C@H](CS[C@H](N)C(=O)N[C@@H](CO)C(=O)N[C@@H](CCCCN)C(=O)N[C@@H](CCCCN)C(=O)N[C@@H](CCCCN)C(=O)N[C@@H](CCCCN)C(=O)N[C@@H](CO)C(=O)N[C@@H](CC(C)C)C(=O)N[C@@H](CC(C)C)C(=O)N[C@@H](CCSC)C(=O)N[C@@H](Cc1c[nH]c2ccccc12)C(=O)N[C@H](C(=O)N[C@H](C(=O)N[C@@H](CCC(N)=O)C(=O)N[C@H](C(=O)O)C(C)C)[C@@H](C)O)[C@@H](C)CC)OC(=O)CCCCCCCCCCCCCCC" : reported EC50 = 468

---

experimental target: Toll-like receptor 1/2 (Homo sapiens, UniProt O60603+Q15399)
Sequence (Q15399 whole entry, one chain of several): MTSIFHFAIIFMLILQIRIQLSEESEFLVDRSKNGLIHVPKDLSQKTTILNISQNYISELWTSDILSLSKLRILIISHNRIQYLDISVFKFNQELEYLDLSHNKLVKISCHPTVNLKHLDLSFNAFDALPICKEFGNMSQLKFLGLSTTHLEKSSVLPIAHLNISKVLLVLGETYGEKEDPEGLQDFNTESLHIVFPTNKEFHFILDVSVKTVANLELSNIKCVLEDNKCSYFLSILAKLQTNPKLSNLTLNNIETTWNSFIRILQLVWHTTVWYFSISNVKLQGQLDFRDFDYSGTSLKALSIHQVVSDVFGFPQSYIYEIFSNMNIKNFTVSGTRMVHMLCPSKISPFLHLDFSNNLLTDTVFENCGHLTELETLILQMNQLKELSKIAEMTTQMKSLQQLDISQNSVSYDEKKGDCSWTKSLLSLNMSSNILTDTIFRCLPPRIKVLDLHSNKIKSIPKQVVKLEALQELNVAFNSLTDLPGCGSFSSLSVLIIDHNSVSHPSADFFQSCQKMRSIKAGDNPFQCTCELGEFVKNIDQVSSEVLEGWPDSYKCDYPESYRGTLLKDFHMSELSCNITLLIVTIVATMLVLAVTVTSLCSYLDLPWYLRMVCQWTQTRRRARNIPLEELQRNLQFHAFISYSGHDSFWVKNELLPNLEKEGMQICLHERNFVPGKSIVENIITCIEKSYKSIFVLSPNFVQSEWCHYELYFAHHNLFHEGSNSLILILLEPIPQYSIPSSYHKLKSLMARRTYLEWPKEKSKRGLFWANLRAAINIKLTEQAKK
assay overview: Agonist activity at TLR2/TLR1 in human THP-1 cells
Format: cell-based
Label key: met means EC50 under 20 nM; not met means EC50 of 20 nM or more.

Answered examples (5):
- molecule: "CCCCNC(=O)[C@@H]1CN(C(=O)c2ccc(C(=O)N3C[C@@H](C(=O)N[C@H]4C[C@@H]4c4ccccc4)[C@H](C(=O)N[C@@H]4C[C@H]4c4ccccc4)C3)cc2)C[C@H]1C(=O)NCCCC"
  label: "met"
- molecule: "O=C(NCCc1ccc(F)cc1)[C@@H]1CN(C(=O)[C@H]2CC[C@H](C(=O)N3C[C@@H](C(=O)NCCc4ccc(F)cc4)[C@H](C(=O)NCCc4ccc(F)cc4)C3)CC2)C[C@H]1C(=O)NCCc1ccc(F)cc1"
  label: "not met"
- molecule: "O=C(N[C@H]1C[C@@H]1c1ccccc1)[C@@H]1CN(C(=O)c2ccc(C(=O)N3C[C@@H](C(=O)N[C@H]4C[C@@H]4c4ccccc4)[C@H](C(=O)N[C@H]4C[C@@H]4c4ccccc4)C3)c3ccccc23)C[C@H]1C(=O)N[C@H]1C[C@@H]1c1ccccc1"
  label: "not met"
- molecule: "Nc1ccc(CCNC(=O)[C@@H]2CN(C(=O)c3ccc(C(=O)N4C[C@@H](C(=O)NCCc5ccc(N)cc5)[C@H](C(=O)NCCc5ccc(N)cc5)C4)cc3)C[C@H]2C(=O)NCCc2ccc(N)cc2)cc1 (racemic)"
  label: "not met"
- molecule: "O=C(N[C@H]1C[C@@H]1c1ccccc1)[C@@H]1CN(C(=O)c2cc(Br)c(C(=O)N3C[C@@H](C(=O)N[C@H]4C[C@@H]4c4ccccc4)[C@H](C(=O)N[C@H]4C[C@@H]4c4ccccc4)C3)cc2Br)C[C@H]1C(=O)N[C@H]1C[C@@H]1c1ccccc1"
  label: "not met"

EC50 strictly < 20 nM for this molecule? "O=C(N[C@H]1C[C@@H]1c1ccccc1)[C@@H]1CN(C(=O)[C@H]2CC[C@@H](C(=O)N3C[C@@H](C(=O)N[C@H]4C[C@@H]4c4ccccc4)[C@H](C(=O)N[C@H]4C[C@@H]4c4ccccc4)C3)CC2)C[C@H]1C(=O)N[C@H]1C[C@@H]1c1ccccc1"
not met

EC50 strictly < 20 nM for this molecule? "O=C(N[C@H]1C[C@@H]1c1ccccc1)[C@@H]1CN(C(=O)c2ccc(C(=O)N3C[C@@H](C(=O)N[C@H]4C[C@@H]4c4ccccc4)[C@H](C(=O)N[C@H]4C[C@@H]4c4ccccc4)C3)s2)C[C@H]1C(=O)N[C@H]1C[C@@H]1c1ccccc1"
not met

EC50 strictly < 20 nM for this molecule? "O=C(N[C@H]1C[C@@H]1c1ccc(Cl)cc1)[C@@H]1CN(C(=O)c2ccc(C(=O)N3C[C@@H](C(=O)N[C@H]4C[C@@H]4c4ccc(Cl)cc4)[C@H](C(=O)N[C@@H]4C[C@H]4c4ccc(Cl)cc4)C3)cc2)C[C@H]1C(=O)N[C@H]1C[C@@H]1c1ccc(Cl)cc1"
not met

EC50 strictly < 20 nM for this molecule? N#Cc1ccc(CCNC(=O)[C@@H]2CN(C(=O)c3ccc(C(=O)N4C[C@@H](C(=O)NCCc5ccc(C#N)cc5)[C@H](C(=O)NCCc5ccc(C#N)cc5)C4)cc3)C[C@H]2C(=O)NCCc2ccc(C#N)cc2)cc1 (racemic)
not met

EC50 strictly < 20 nM for this molecule? "CCCCCCCCNC(=O)[C@@H]1CN(C(=O)c2ccc(C(=O)N3C[C@@H](C(=O)N[C@H]4C[C@@H]4c4ccccc4)[C@H](C(=O)N[C@@H]4C[C@H]4c4ccccc4)C3)cc2)C[C@H]1C(=O)NCCCCCCCC"
met

EC50 strictly < 20 nM for this molecule? "Cc1cc(C(=O)N2C[C@@H](C(=O)N[C@H]3C[C@@H]3c3ccccc3)[C@H](C(=O)N[C@H]3C[C@@H]3c3ccccc3)C2)c(C)cc1C(=O)N1C[C@@H](C(=O)N[C@H]2C[C@@H]2c2ccccc2)[C@H](C(=O)N[C@H]2C[C@@H]2c2ccccc2)C1"
not met

EC50 strictly < 20 nM for this molecule? "O=C(N[C@H]1C[C@@H]1c1ccccc1)[C@@H]1CN(C(=O)c2c(F)c(F)c(C(=O)N3C[C@@H](C(=O)N[C@H]4C[C@@H]4c4ccccc4)[C@H](C(=O)N[C@H]4C[C@@H]4c4ccccc4)C3)c(F)c2F)C[C@H]1C(=O)N[C@H]1C[C@@H]1c1ccccc1"
not met

EC50 strictly < 20 nM for this molecule? "O=C(NCCc1ccc(F)cc1)[C@@H]1CN(C(=O)C#CC(=O)N2C[C@@H](C(=O)NCCc3ccc(F)cc3)[C@H](C(=O)NCCc3ccc(F)cc3)C2)C[C@H]1C(=O)NCCc1ccc(F)cc1"
not met

EC50 strictly < 20 nM for this molecule? "O=C(N[C@H]1C[C@@H]1c1ccccc1)[C@@H]1CN(C(=O)c2ccc3cc(C(=O)N4C[C@@H](C(=O)N[C@H]5C[C@@H]5c5ccccc5)[C@H](C(=O)N[C@H]5C[C@@H]5c5ccccc5)C4)ccc3c2)C[C@H]1C(=O)N[C@H]1C[C@@H]1c1ccccc1"
met

EC50 strictly < 20 nM for this molecule? O=C(NCCc1ccc(Cl)cc1)[C@@H]1CN(C(=O)c2ccc(C(=O)N3C[C@@H](C(=O)NCCc4ccc(Cl)cc4)[C@H](C(=O)NCCc4ccc(Cl)cc4)C3)cc2)C[C@H]1C(=O)NCCc1ccc(Cl)cc1 (racemic)
not met
